- measured_target: VGAT (Rattus norvegicus)
- Sequence (O35458 whole entry): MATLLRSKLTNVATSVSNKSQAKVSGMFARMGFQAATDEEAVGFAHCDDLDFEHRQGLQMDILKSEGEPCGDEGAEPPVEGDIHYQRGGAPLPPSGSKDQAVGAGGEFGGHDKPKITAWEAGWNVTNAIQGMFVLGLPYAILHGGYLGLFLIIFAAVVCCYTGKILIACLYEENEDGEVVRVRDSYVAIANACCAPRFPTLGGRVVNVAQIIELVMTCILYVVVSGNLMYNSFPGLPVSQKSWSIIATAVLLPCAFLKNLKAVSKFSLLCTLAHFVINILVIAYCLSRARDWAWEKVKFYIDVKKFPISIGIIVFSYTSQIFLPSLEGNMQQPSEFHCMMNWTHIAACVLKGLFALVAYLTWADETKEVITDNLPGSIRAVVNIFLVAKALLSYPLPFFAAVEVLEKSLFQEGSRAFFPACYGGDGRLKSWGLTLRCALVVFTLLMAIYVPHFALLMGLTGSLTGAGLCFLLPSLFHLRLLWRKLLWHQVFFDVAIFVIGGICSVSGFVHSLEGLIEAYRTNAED
- assay_explanation: GABA uptake by proteoliposomes
outcome_measure: IC50

Report IC50 for CC(=O)CC(=O)O [acetoacetate] please.
> 5 mM

This collection of values is drawn from paper PMC2978156.
